EXPERIMENT: Mouse pharmacokinetics after single intraperitoneal dose (plasma and brain)
Type: in vivo
MEASUREMENT_SETUP: male, C57BL/6, mouse, ip; plasma, 5 mg/kg single i.p., C57/Bl6 mice, mean ± SEM
RESULT_TYPE: AUC(0-t) (ng·h/mL)
Field: numeric (ng·h/mL). Do not append units.

Using the record for `CCCC[C@H](Cc1c[nH]c2ccccc12)NC(=O)c1cnc(N2CCN(C)CC2)s1` , report its AUC(0-t).
1640

----------
EXPERIMENT: Mouse pharmacokinetics after single intraperitoneal dose (plasma and brain)
Format: in vivo
MEASUREMENT_SETUP: male, C57BL/6, mouse, plasma, ip, 5 mg/kg, plasma, 5 mg/kg single i.p., C57/Bl6 mice; read-out: T max
RESULT_TYPE: Tmax
# number then unit; no other words

Given the entry CCCC[C@H](Cc1c[nH]c2ccccc12)NC(=O)c1cnc(N2CCN(C)CC2)s1 [minzasolmin] , report its measured Tmax.
15 min

----------
EXPERIMENT: Bioanalysis of compound levels in plasma and brain after long-term treatment
Type: in vivo
MEASUREMENT_SETUP: mouse, plasma, ip; Line 61 transgenic mice, 5 mg/kg i.p. daily about 90 days, 1 h post final dose, mean ± S.E.M.; read-out: [minzasolmin] Plasma
RESULT_TYPE: concentration at 1 h (ng/mL)
Answer in ng/mL, number only, no unit symbol.

Fill in: concentration at 1 h of CCCC[C@H](Cc1c[nH]c2ccccc12)NC(=O)c1cnc(N2CCN(C)CC2)s1 [minzasolmin] is ___
357

----------
EXPERIMENT: Mouse pharmacokinetics after single intraperitoneal dose (plasma and brain)
Assay type: in vivo
MEASUREMENT_SETUP: male, C57BL/6, mouse, ip; plasma, 5 mg/kg single i.p., C57/Bl6 mice
RESULT_TYPE: AUC(0-inf) (ng·h/mL)
Write the number in ng·h/mL without appending the unit.

Requested read-out: AUC(0-inf). Entry: CCCC[C@H](Cc1c[nH]c2ccccc12)NC(=O)c1cnc(N2CCN(C)CC2)s1 [minzasolmin]
1650

----------
EXPERIMENT: Mouse pharmacokinetics after single intraperitoneal dose (plasma and brain)
Assay type: in vivo
MEASUREMENT_SETUP: male, C57BL/6, mouse, ip; plasma, 1 mg/kg single i.p., C57/Bl6 mice
RESULT_TYPE: half-life (min)
Give a bare numeral; the unit min is implied.

What does the data say about its half-life? Entry: `CCCC[C@H](Cc1c[nH]c2ccccc12)NC(=O)c1cnc(N2CCN(C)CC2)s1`
41.4

----------
EXPERIMENT: Mouse pharmacokinetics after single intraperitoneal dose (plasma and brain)
Format: in vivo
MEASUREMENT_SETUP: male, C57BL/6, mouse, brain and plasma, ip; 5 mg/kg i.p., from AUCinf; read-out: brain/plasma exposure (AUC) ratio
Procedure: Characterization of exposure profile and brain distribution of minzasolmin in male C57BL/6 mice was performed at UCB BioPharma SPRL (Braine l’Alleud, Belgium). All the procedures were approved by the UCB Ethics Committee for Animal Experimentation and conducted in compliance with the Helsinki declaration and the guidelines of the European Community Council directive 86/609/EEC. […] Samples were analyzed by liquid chromatography-tandem mass spectrometry (LC-MS/MS). […]
RESULT_TYPE: Kp

Tell me the measured Kp of CCCC[C@H](Cc1c[nH]c2ccccc12)NC(=O)c1cnc(N2CCN(C)CC2)s1 [minzasolmin] , please.
0.26

----------
EXPERIMENT: Mouse pharmacokinetics after single intraperitoneal dose (plasma and brain)
Type: in vivo
MEASUREMENT_SETUP: male, C57BL/6, mouse, plasma, ip, 5 mg/kg, plasma, 1 and 5 mg/kg i.p.; read-out: time of maximum plasma concentration after dosing
RESULT_TYPE: Tmax

I am curious: what Tmax value has been reported for CCCC[C@H](Cc1c[nH]c2ccccc12)NC(=O)c1cnc(N2CCN(C)CC2)s1 [minzasolmin] ?
15 to 30 min

----------
EXPERIMENT: Mouse pharmacokinetics after single intraperitoneal dose (plasma and brain)
Format: in vivo
MEASUREMENT_SETUP: male, C57BL/6, mouse, brain, ip, 1 mg/kg, brain, 1 mg/kg single i.p., C57/Bl6 mice; read-out: T max
RESULT_TYPE: Tmax (min)
Please state the figure in min; there is no need to write the unit.

Recorded Tmax for `CCCC[C@H](Cc1c[nH]c2ccccc12)NC(=O)c1cnc(N2CCN(C)CC2)s1` , please?
30

----------
EXPERIMENT: Mouse pharmacokinetics after single intraperitoneal dose (plasma and brain)
Assay type: in vivo
MEASUREMENT_SETUP: male, C57BL/6, mouse, brain, ip, 5 mg/kg, brain, 5 mg/kg single i.p., C57/Bl6 mice; read-out: T max
RESULT_TYPE: Tmax
Record the result as a number with its unit.

Item `CCCC[C@H](Cc1c[nH]c2ccccc12)NC(=O)c1cnc(N2CCN(C)CC2)s1` has what recorded Tmax?
30 min

----------
EXPERIMENT: Mouse pharmacokinetics after single intraperitoneal dose (plasma and brain)
Format: in vivo
MEASUREMENT_SETUP: male, C57BL/6, mouse, ip; plasma, 5 mg/kg single i.p., C57/Bl6 mice, mean ± SEM
Method: Characterization of exposure profile and brain distribution of minzasolmin in male C57BL/6 mice was performed at UCB BioPharma SPRL (Braine l’Alleud, Belgium). All the procedures were approved by the UCB Ethics Committee for Animal Experimentation and conducted in compliance with the Helsinki declaration and the guidelines of the European Community Council directive 86/609/EEC. […] Samples were analyzed by liquid chromatography-tandem mass spectrometry (LC-MS/MS). […]
RESULT_TYPE: Cmax (ng/mL)
Kindly answer with a numeric value in ng/mL, unit omitted.

Value lookup for Cmax; key = `CCCC[C@H](Cc1c[nH]c2ccccc12)NC(=O)c1cnc(N2CCN(C)CC2)s1`
1320

----------
EXPERIMENT: Mouse pharmacokinetics after single intraperitoneal dose (plasma and brain)
Type: in vivo
MEASUREMENT_SETUP: male, C57BL/6, mouse, ip; plasma, 1 mg/kg single i.p., C57/Bl6 mice, mean ± SEM
RESULT_TYPE: AUC(0-t) (ng·h/mL)
// units = ng·h/mL; emit number, no label

Look up AUC(0-t): `CCCC[C@H](Cc1c[nH]c2ccccc12)NC(=O)c1cnc(N2CCN(C)CC2)s1`
307

----------
EXPERIMENT: Mouse pharmacokinetics after single intraperitoneal dose (plasma and brain)
Assay type: in vivo
MEASUREMENT_SETUP: male, C57BL/6, mouse, ip; plasma, 5 mg/kg single i.p., C57/Bl6 mice
RESULT_TYPE: half-life (min)
Enter your answer as a number in min; do not include the unit.

Endpoint output: half-life of `CCCC[C@H](Cc1c[nH]c2ccccc12)NC(=O)c1cnc(N2CCN(C)CC2)s1` . Value?
49.8

----------
EXPERIMENT: Mouse pharmacokinetics after single intraperitoneal dose (plasma and brain)
Assay type: in vivo
MEASUREMENT_SETUP: male, C57BL/6, mouse, ip; brain, 1 mg/kg single i.p., C57/Bl6 mice, mean ± SEM
RESULT_TYPE: Cmax
Enter the number, and then the unit.

Look at this molecule and give its reported Cmax. `CCCC[C@H](Cc1c[nH]c2ccccc12)NC(=O)c1cnc(N2CCN(C)CC2)s1`
76 ng/g
